test: viability loss of HPDE-C7K cells – cell-based, fluorescence, HTS, primary screen (AID 431); settings: HPDE-C7K KRASV12 cells, Alamar Blue viability, 48 h; at 10 µM;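 note: 0% = DMSO solvent wells and 100% = doxorubicin-treated wells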
Among all 63,000 compounds or so, about 1,100 (1.7%) were called active.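 Rule for the calls: active = compounds whose percent cytotoxicity in the single-dose primary screen, scaled between solvent and toxic-drug controls, exceeds 50; inactive = the rest.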 What follows is part of a selection rich in actives, with near analogues and random picks from the rest. Measured potencies and affinities stand elsewhere.
Labels: true (1) for active, false (0) for inactive

[[record]]
compound = "COc1ccc(OC)c2sc(N3CCN(c4ccccc4)CC3)nc12"
answer_label = "false (0)"

[[record]]
compound = "CCOC(=O)c1sc(Nc2nc3c(OC)cccc3s2)nc1C"
answer_label = "true (1)"

[[record]]
compound = "CC(C)C1CC(c2csc(N)n2)CCO1 (configuration not stated)"
answer_label = "false (0)"

[[record]]
compound = "Cc1ccc(S(=O)(=O)N(C)Cc2nc(-c3ccncc3)no2)cc1"
answer_label = "false (0)"

[[record]]
compound = "CN1CCc2ccccc2C1C1CCNCC1 (configuration not stated)"
answer_label = "false (0)"

[[record]]
compound = "COc1cc(NS(=O)(=O)c2cc(C)ccc2OC)c(OC)cc1Cl"
answer_label = "false (0)"

[[record]]
compound = "COc1ccc(OC)c(S(=O)(=O)Nc2cc(OC)c(Cl)cc2OC)c1"
answer_label = "false (0)"

[[record]]
compound = "Fc1cccc2sc(Nc3nnc(-c4ccco4)o3)nc12"
answer_label = "false (0)"

[[record]]
compound = "CNc1oc(Cc2cccc3ccccc23)nc1C#N"
answer_label = "false (0)"

[[record]]
compound = "COC(=O)c1sc(NC(=O)COc2ccccc2OC)nc1C"
answer_label = "false (0)"

[[record]]
compound = "O=C(COc1ccc(F)c(Cl)c1)c1ccc[nH]1"
answer_label = "false (0)"

[[record]]
compound = "COc1ccc(OC)c(NC(=O)CC(NCCC2=CCCCC2)C(=O)O)c1 (configuration not stated)"
answer_label = "false (0)"


* * *

test: viability loss of HPDE-C7K cells – cell-based, fluorescence, HTS, primary screen (AID 431); conditions: HPDE-C7K KRASV12 cells, Alamar Blue viability, 48 h; at 10 µM;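 note: 0% = DMSO solvent wells and 100% = doxorubicin-treated wells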
Hit rate of the full screen: of about 63,000 compounds, about 1,100 (1.7%) were called active.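 Rule for the calls: active = compounds whose percent cytotoxicity in the single-dose primary screen, scaled between solvent and toxic-drug controls, exceeds 50; inactive = the rest.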 For the sample, actives were picked, then their nearest neighbours and some compounds at random. Potency and affinity values are given separately.
Possible outcomes: true for active, false for inactive

[[record]]
compound = "O=C(O)C1C2CCC(C2)C1C(=O)NCCCn1ccnc1 (configuration not stated)"
answer_label = "false"

[[record]]
compound = "O=C(CN1CCN(C(=O)c2ccccc2F)CC1)Nc1ccc(Br)cc1"
answer_label = "false"

[[record]]
compound = "CC1(C)Cc2c(sc3c2c(=N)n(Cc2ccco2)c(=O)n3CC(=O)Nc2ccc(Cl)cc2)CO1"
answer_label = "true"

[[record]]
compound = "COc1ccc2nc(SCC(N)=O)[nH]c2c1"
answer_label = "false"

[[record]]
compound = "COc1ccc(/C=N/n2cc(-c3ccc(OC)cc3)nc2N)cc1"
answer_label = "false"

[[record]]
compound = "Cc1cc(/C=N\\O)c(C)n1-c1ccncc1"
answer_label = "false"

[[record]]
compound = "Cc1occc1-c1nc(-c2ccccn2)no1"
answer_label = "false"

[[record]]
compound = "COc1ccc(C(=O)Nc2nc3ccccc3[nH]2)cc1OC"
answer_label = "false"

[[record]]
compound = "COc1ccc(/C=N/n2cc(-c3ccccc3)nc2N)cc1"
answer_label = "true"

[[record]]
compound = "CCOc1ccc2[nH]c(=O)c(CN(CCOC)C(=O)N3CCOCC3)cc2c1"
answer_label = "false"

[[record]]
compound = "CCOc1ccc2nc(NCCO)[nH]c2c1"
answer_label = "false"

[[record]]
compound = "O=C(COc1cc(Cl)ccc1Cl)Nc1nnc(CC(=O)N2CCOCC2)s1"
answer_label = "false"


Every entry's value here was drawn from PubChem BioAssay AID431.
